In this section we review reported CLhep predicted values for a set of compounds.
MEASUREMENT PROTOCOL: Clearance in human liver microsomes by LC-MS/MS analysis
Format: ADME

Solved entries:
>>> df
                                 mol_smiles  attribute_measured         result
0  Nc1ncnc2ccc(-c3cc(F)cc(NC(=O)CN4CCCC4)c3)nc12     CLhep predicted  7.8 mL/min/kg
1              COc1ccccc1-c1ccc2ncnc(N)c2c1     CLhep predicted   17 mL/min/kg
2            COc1cccc(-c2ccc3ncnc(N)c3c2)c1     CLhep predicted   19 mL/min/kg

# CLhep predicted lookup, item Nc1ncnc2ccc(-c3cc(F)cc(NC(=O)CN4CCCC4)c3)cc12 7.2 mL/min/kg

---

In this section we review reported Percent remaining at 1 h values for a set of compounds.
MEASUREMENT PROTOCOL: Metabolic stability in mouse liver microsomes assessed as compound remaining after 1 hr by LC-MS/MS analysis
Assay type: ADME
Your answer is read as %, so omit the unit and give the number.

Solved entries:
In [3]: df
Out[3]:
                         mol_smiles        attribute_measured  numeric_readout
0     Nc1cccc(-c2ccc3ncnc(N)c3c2)c1  Percent remaining at 1 h               80
1  Nc1cc(F)cc(-c2ccc3ncnc(N)c3n2)c1  Percent remaining at 1 h               82
2      COc1ccccc1-c1ccc2ncnc(N)c2c1  Percent remaining at 1 h               82

# Percent remaining at 1 h lookup, item Nc1cc(F)cc(-c2ccc3ncnc(N)c3c2)c1 79
